Tested on: West Nile virus
assay: Antiviral activity against West Nile virus infected in BHK-WII RepRen1B cells assessed as inhibition of viral replication at 10 uM after 3 days by luciferase reporter gene assay relative to control
Assay type: functional
testContext: 72 h
Some molecules, each annotated with its measured inhibition at 10 µM.

- molecule: "Cc1cn([C@H]2C[C@H](n3nncc3-c3cc4ccccc4c4ccccc34)[C@@H](CO)O2)c(=O)[nH]c1=O"
  testSystem: "West Nile virus"
  inhibition at 10 µM (%): 0
- molecule: "Cc1cn([C@H]2C[C@H](NC(=O)c3c[nH]c4ccccc34)[C@@H](CO)O2)c(=O)[nH]c1=O"
  testSystem: "West Nile virus"
  inhibition at 10 µM (%): 0
- molecule: "Cc1cn([C@H]2C[C@H](N3C(=O)CSC3c3c4ccccc4cc4ccccc34)[C@@H](CO)O2)c(=O)[nH]c1=O (mixture of isomers)"
  testSystem: "West Nile virus"
  inhibition at 10 µM (%): 12
- molecule: "Cc1cn([C@H]2C[C@H](n3nncc3COc3ccccc3)[C@@H](CO[Si](C)(C)C(C)(C)C)O2)c(=O)[nH]c1=O"
  testSystem: "West Nile virus"
  inhibition at 10 µM (%): 50
- molecule: "Cc1cn([C@H]2C[C@H](N=[N+]=[N-])[C@@H](CO)O2)c(=O)[nH]c1=O"
  testSystem: "West Nile virus"
  inhibition at 10 µM (%): 0
- molecule: "Cc1cn([C@H]2C[C@H](n3nncc3-c3cc4ccccc4c4ccccc34)[C@@H](CO[Si](C)(C)C(C)(C)C)O2)c(=O)[nH]c1=O"
  testSystem: "West Nile virus"
  inhibition at 10 µM (%): 99
- molecule: "Cc1cn([C@H]2C[C@H](N=[N+]=[N-])[C@@H](CO[Si](C)(C)C(C)(C)C)O2)c(=O)[nH]c1=O"
  testSystem: "West Nile virus"
  inhibition at 10 µM (%): 17

---

Test system: Dengue virus
assay: Antiviral activity against Dengue virus infected in BHK pD2-hRucPac-2ATG cells assessed as inhibition of viral replication at 10 uM after 3 days by luciferase reporter gene assay relative to control
Format: functional
testContext: 72 h
Some molecules, each annotated with its measured inhibition at 10 µM.

- molecule: "Cc1cn([C@H]2C[C@H](N3C(=O)CSC3c3ccc4[nH]ccc4c3)[C@@H](CO)O2)c(=O)[nH]c1=O (mixture of isomers)"
  inhibition at 10 µM: "13%"
- molecule: "Cc1cn([C@H]2C[C@H](NC(=O)c3c[nH]c4ccccc34)[C@@H](CO)O2)c(=O)[nH]c1=O"
  inhibition at 10 µM: "4.3%"
- molecule: "COc1ccc(C(OC[C@H]2O[C@@H](n3cc(C)c(=O)[nH]c3=O)C[C@@H]2n2nncc2-c2ccc3cc(OC)ccc3c2)(c2ccccc2)c2ccc(OC)cc2)cc1"
  inhibition at 10 µM: "46%"
- molecule: "Cc1cn([C@H]2C[C@H](n3nncc3C3CCCCC3)[C@@H](CO)O2)c(=O)[nH]c1=O"
  inhibition at 10 µM: "10%"

---

Some compounds, each annotated with its measured inhibition at 10 µM.
System: Dengue virus
assay: Antiviral activity against Dengue virus infected in BHK pD2-hRucPac-2ATG cells assessed as inhibition of viral replication at 10 uM after 3 days by luciferase reporter gene assay relative to control
Type: functional
testContext: 72 h

- compound: "Cc1cn([C@H]2C[C@H](N3C(=O)CSC3c3c4ccccc4cc4ccccc34)[C@@H](CO[Si](C)(C)C(C)(C)C)O2)c(=O)[nH]c1=O (mixture of isomers)"
  inhibition at 10 µM: "46%"
- compound: "Cc1cn([C@H]2C[C@H](n3nncc3C3CC3)[C@@H](CO[Si](C)(C)C(C)(C)C)O2)c(=O)[nH]c1=O"
  inhibition at 10 µM: "6.4%"
- compound: "Cc1cn([C@H]2C[C@H](NC(=O)c3cccc4ccccc34)[C@@H](CO[Si](C)(C)C(C)(C)C)O2)c(=O)[nH]c1=O"
  inhibition at 10 µM: "11%"
- compound: "CCOCOC[C@H]1O[C@@H](n2cc(C)c(=O)[nH]c2=O)C[C@@H]1n1nncc1-c1ccc2cc(OC)ccc2c1"
  inhibition at 10 µM: "13%"
- compound: "Cc1cn([C@H]2C[C@H](n3nncc3-c3ccc(-c4ccccc4)cc3)[C@@H](CO[Si](C)(C)C(C)(C)C)O2)c(=O)[nH]c1=O"
  inhibition at 10 µM: "99%"
- compound: "Cc1cn([C@H]2C[C@H](n3cc(-c4ccc5[nH]ccc5c4)nn3)[C@@H](CO)O2)c(=O)[nH]c1=O"
  inhibition at 10 µM: "8.2%"
- compound: "Cc1cn([C@H]2C[C@H](n3nncc3COc3ccccc3)[C@@H](CO[Si](C)(C)C(C)(C)C)O2)c(=O)[nH]c1=O"
  inhibition at 10 µM: "28%"

Cited source: ChEMBL document CHEMBL3576816
